Assay: Acute toxicity (Litchfield & Wilcoxon method)
Details: rat, in vivo, ip, I.P., male; 95% confidence limits
Value kind: LD50

Consider CCc1cc(S(=O)(=O)O)c2cc(C(C)C)cccc1-2 . Its measured LD50 is 165 mg/kg

----------
Target: pepsin (Sus scrofa, UniProt P00791)
Construct: purchased
Sequence (P00791 60-385): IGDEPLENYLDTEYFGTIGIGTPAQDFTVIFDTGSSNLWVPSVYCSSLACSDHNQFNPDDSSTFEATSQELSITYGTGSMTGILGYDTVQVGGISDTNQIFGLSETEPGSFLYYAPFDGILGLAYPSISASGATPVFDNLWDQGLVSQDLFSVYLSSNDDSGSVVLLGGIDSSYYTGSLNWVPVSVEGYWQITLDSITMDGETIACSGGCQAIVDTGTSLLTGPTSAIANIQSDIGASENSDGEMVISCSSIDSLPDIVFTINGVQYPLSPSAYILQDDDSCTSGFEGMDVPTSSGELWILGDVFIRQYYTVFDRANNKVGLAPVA
Assay: Anti-peptic activity in vitro (bovine serum albumin as substrate)
Format: biochemical
Conditions: sample concentration 0.500 mg/ml
Value kind: inhibition at 500 µg/mL

// inhibition at 500 µg/mL lookup, molecule = Cc1cc(S(=O)(=O)O)c2c(C)ccc(C(C)C)cc1-2 [GAS, sodium guaiazulene-3-sulfonate, reference compound] , result: 58.6%

Reported inhibition at 500 µg/mL of CC(C)=CCCC(C)c1cc(S(=O)(=O)O)c2cccccc1-2 (stereo not shown) : 24.5%

Input CCc1cc(S(=O)(=O)O)c2cc(C(C)C)cccc1-2 . Output inhibition at 500 µg/mL: 63.6%

***
// field: inhibition at 500 µg/mL; key: CCc1cc(S(=O)(=O)O)c2ccc(C(C)C)ccc1-2 ; value = 65.7%

----------
Parameter remaining at 240 h: see the listing below.
Test: Stability on storage (% residue of the original compound)
Assay type: physicochemical
Details: 70° C., 240 hours
Give the value, in units of %, as a plain number.

Documented remaining at 240 h of Cc1cc(S(=O)(=O)O)c2c(C)ccc(C(C)C)cc1-2 [GAS, sodium guaiazulene-3-sulfonate, reference compound] : 9.3

Record summary for CCc1cc(S(=O)(=O)O)c2cc(C(C)C)cccc1-2 [compound 3] : reported remaining at 240 h = 100

----------
Experiment: Acute toxicity (Litchfield & Wilcoxon method)
Conditions: rat, in vivo, ip, I.P., female; 95% confidence limits
Value kind: LD50
Param answer (str): number followed by unit.

Input CCc1cc(S(=O)(=O)O)c2cc(C(C)C)cccc1-2 . Output LD50: 180 mg/kg

----------
Target: pepsin (Sus scrofa, UniProt P00791)
Construct: purchased
Assay: Anti-peptic activity in vitro (bovine serum albumin as substrate)
Format: biochemical
Conditions: sample concentration 1.000 mg/ml
Value kind: inhibition at 1000 µg/mL (%)
Answer with a number only, understood to be in %.

Summary for this compound, CCc1cc(S(=O)(=O)O)c2ccc(C(C)C)ccc1-2 : inhibition at 1000 µg/mL is 55.8

In plain terms, CC(C)=CCCC(C)c1cc(S(=O)(=O)O)c2cccccc1-2 (stereo not shown) has a documented inhibition at 1000 µg/mL of 50.4

The compound Cc1cc(S(=O)(=O)O)c2c(C)ccc(C(C)C)cc1-2 [GAS, sodium guaiazulene-3-sulfonate, reference compound] showed inhibition at 1000 µg/mL equal to 75.1

Continuing:
Notebook: CCc1cc(S(=O)(=O)O)c2cc(C(C)C)cccc1-2 , inhibition at 1000 µg/mL read as 97.1

----------
The following compounds are shown together with reported remaining at 192 h values.
Experiment: Stability on storage (% residue of the original compound)
Format: physicochemical
Conditions: 60° C., 192 hours
Quick note: unit goes after the number.

Note to self: remaining at 192 h recorded for Cc1cc(S(=O)(=O)O)c2c(C)ccc(C(C)C)cc1-2 [GAS, sodium guaiazulene-3-sulfonate, reference compound] was 51.3%

In the following, a different compound is considered.
Input CCc1cc(S(=O)(=O)O)c2cc(C(C)C)cccc1-2 . Output remaining at 192 h: 100%
